Hello, the source for this data is patent US8003785B2, in case you need it.

Measured IC50 values are reported for all entries that follow.
target: PLK1 (Homo sapiens, UniProt P53350); construct: Full-length, active GST-PLK1 is purified from Sf9 insect cells; made in house; host or cells: Sf9 insect cells; assay: Biochemical Characterization Assay: HTRF kinase assay, GST-PLK1 phosphorylation of GST-p53; conditions: GST-PLK1, GST-p53 substrate, ATP
Sequence (P53350 whole entry): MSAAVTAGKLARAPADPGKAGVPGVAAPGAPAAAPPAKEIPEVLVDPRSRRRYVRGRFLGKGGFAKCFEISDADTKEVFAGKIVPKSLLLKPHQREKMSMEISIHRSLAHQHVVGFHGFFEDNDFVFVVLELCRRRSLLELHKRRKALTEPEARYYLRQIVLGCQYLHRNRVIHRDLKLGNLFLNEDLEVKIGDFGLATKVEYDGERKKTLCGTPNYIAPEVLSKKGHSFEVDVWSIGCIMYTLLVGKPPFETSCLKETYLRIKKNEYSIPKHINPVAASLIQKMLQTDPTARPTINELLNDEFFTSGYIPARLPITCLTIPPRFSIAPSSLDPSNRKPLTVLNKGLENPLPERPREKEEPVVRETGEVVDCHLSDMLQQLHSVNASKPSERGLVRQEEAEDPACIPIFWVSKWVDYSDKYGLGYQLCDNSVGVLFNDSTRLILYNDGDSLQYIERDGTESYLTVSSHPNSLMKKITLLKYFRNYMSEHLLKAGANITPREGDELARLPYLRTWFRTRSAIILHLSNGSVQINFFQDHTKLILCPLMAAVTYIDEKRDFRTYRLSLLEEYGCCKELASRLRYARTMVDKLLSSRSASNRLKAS

| compound | IC50 |
| --- | --- |
| COc1cc(C(=O)N2CCCCC2)ccc1Nc1ncc2c(n1)N(C1CCCC1)CC(F)(F)C(=O)N2C | 51 to 500 nM |
| COc1cc(C(=O)NC2CC(C)(C)N(C)C(C)(C)C2)ccc1Nc1ncc2c(n1)N(C1CCCC1)CC(F)(F)C(=O)N2C | 1 to 50 nM |
| COc1cc(C(=O)NC2CCN(CCF)CC2)ccc1Nc1ncc2c(n1)N(C1CCCC1)CC(F)(F)C(=O)N2C | 1 to 50 nM |
| CCN1C(=O)C(F)(F)CN(C2CCCC2)c2nc(Nc3ccc(C(=O)NC4CCOCC4)cc3)ncc21 | 500 to 5000 nM |
| CCN1C(=O)C(F)(F)CN(C2CCCC2)c2nc(Nc3ccc(C(=O)NC4CCN(C)CC4)cc3)ncc21 | 51 to 500 nM |
| COc1cc(C(=O)NCC(O)CN2CCN(C(=O)OC(C)(C)C)CC2)ccc1Nc1ncc2c(n1)N(C1CCCC1)CC(F)(F)C(=O)N2C (stereo not shown) | 51 to 500 nM |
| COc1cc(C(=O)NCCCN2CCCCC2C)ccc1Nc1ncc2c(n1)N(C1CCCC1)CC(F)(F)C(=O)N2C (stereo not shown) | 1 to 50 nM |
| COc1cc(C(=O)N[C@H]2CCN(Cc3ccccc3)C2)ccc1Nc1ncc2c(n1)N(C1CCCC1)CC(F)(F)C(=O)N2C | 1 to 50 nM |
| COc1cc(C(=O)NCC(F)(F)F)ccc1Nc1ncc2c(n1)N(C1CCCC1)CC(F)(F)C(=O)N2C | 1 to 50 nM |
| COc1cc(C(=O)NCCCN(C)C)ccc1Nc1ncc2c(n1)N(C1CCCC1)CC(F)(F)C(=O)N2 | 500 to 5000 nM |
| COc1cc(C(=O)N[C@H]2CCN(C(=O)OC(C)(C)C)C2)ccc1Nc1ncc2c(n1)N(C1CCCC1)CC(F)(F)C(=O)N2C | 1 to 50 nM |
| COc1cc(C(=O)Nc2ccncc2)ccc1Nc1ncc2c(n1)N(C1CCCC1)CC(F)(F)C(=O)N2C | 1 to 50 nM |
| CNC(=O)c1ccc(Nc2ncc3c(n2)N(C2CCC2)CC(F)(F)C(=O)N3C)c(OC)c1 | 1 to 50 nM |
| COc1cc(C(=O)NCc2ccsc2)ccc1Nc1ncc2c(n1)N(C1CCCC1)CC(F)(F)C(=O)N2C | 51 to 500 nM |
| COc1cc(C(N)=O)ccc1Nc1ncc2c(n1)N(C1CCCC1)CC(F)(F)C(=O)N2C | 1 to 50 nM |
| COc1cc(C(=O)N[C@H]2CC[C@H](O)CC2)ccc1Nc1ncc2c(n1)N(C1CCCC1)CC(F)(F)C(=O)N2C | 1 to 50 nM |
| COc1cc(C(=O)NC2CCN(C)CC2)ccc1Nc1ncc2c(n1)N(C1CCC1)CC(F)(F)C(=O)N2C | 1 to 50 nM |
| COc1cc(C(=O)NC2CCN(CC(F)(F)F)CC2)ccc1Nc1ncc2c(n1)N(C1CCCC1)CC(F)(F)C(=O)N2C | 1 to 50 nM |
| CCN1CCC(NC(=O)c2ccc(Nc3ncc4c(n3)N(C3CCC3)CC(F)(F)C(=O)N4C)c(OC)c2)CC1 | 1 to 50 nM |
| COc1cc(C(N)=O)ccc1Nc1ncc2c(n1)N(C1CCC1)CC(F)(F)C(=O)N2C | 1 to 50 nM |
| COc1cc(C(=O)N[C@H]2CC[C@@H](O)CC2)ccc1Nc1ncc2c(n1)N(C1CCCC1)CC(F)(F)C(=O)N2C | 1 to 50 nM |
| COc1cc(C(=O)NCCCN2CCN(C)CC2)ccc1Nc1ncc2c(n1)N(C1CCCC1)CC(F)(F)C(=O)N2C | 1 to 50 nM |
| COc1cc(C(=O)NCCCCO)ccc1Nc1ncc2c(n1)N(C1CCCC1)CC(F)(F)C(=O)N2C | 1 to 50 nM |
| COc1cc(C(=O)NC2CCN(C(C)=O)CC2)ccc1Nc1ncc2c(n1)N(C1CCCC1)CC(F)(F)C(=O)N2C | 1 to 50 nM |
| CCOCCNC(=O)c1ccc(Nc2ncc3c(n2)N(C2CCCC2)CC(F)(F)C(=O)N3C)c(OC)c1 | 1 to 50 nM |
| COc1cc(C(=O)NCCCN2CCCC2)ccc1Nc1ncc2c(n1)N(C1CCCC1)CC(F)(F)C(=O)N2C | 1 to 50 nM |
| COc1cc(C(=O)NC2CCOCC2)ccc1Nc1ncc2c(n1)N(C1CCCC1)CC(F)(F)C(=O)N2 | > 5000 nM |
| COc1cc(C(=O)NC2CCNCC2)ccc1Nc1ncc2c(n1)N(C1CCCC1)CC(F)(F)C(=O)N2C | 1 to 50 nM |
